Cited source for all entries: PubChem BioAssay AID179

Quick reference: pIC50 of the listed items.
Test system: CEM cells HIV-1 protection, formazan growth assay
Protocol details: NCI AIDS Antiviral Assay
Condition description: measured here: growth of uninfected CEM cells
pIC50: −log10 of the molar value.

Compound	System	pIC50
COc1cc(OC)c(/C=C/c2ccc3ccccc3[n+]2[O-])c(OC)c1	CEM cells HIV-1 protection, formazan growth assay	< 4.25
COC(=O)c1ccc2c(c1)CC1(C2)Cc2cc3c(c(C(=O)OC)c2C1)CCCC3 (configuration not stated)	CEM cells HIV-1 protection, formazan growth assay	< 3.70
O=C1CC(=O)n2cnc3cccc(c32)N1	CEM cells HIV-1 protection, formazan growth assay	< 3.70
C[N+]1=C2[B-](C(C)(C)C)=[N+](C(C)(C)C)[B-]2(C(C)(C)C)[N+](C)=C2[B-](C(C)(C)C)=[N+](C(C)(C)C)[B-]21C(C)(C)C (configuration not stated)	CEM cells HIV-1 protection, formazan growth assay	< 4.30
NNc1ncnc2cccc(Cl)c12	CEM cells HIV-1 protection, formazan growth assay	< 3.70
COC(=O)N/N=C/c1oc(-c2ccccc2)c(-c2ccccc2)c1[N+](=O)[O-]	CEM cells HIV-1 protection, formazan growth assay	< 4.21
c1ccc(/C2=N\OCCCOc3ccccc32)cc1	CEM cells HIV-1 protection, formazan growth assay	< 3.70
O=C(NN1C(=O)c2ccccc2C1=O)c1ccccc1Nc1ccccc1C(=O)NN1C(=O)c2ccccc2C1=O	CEM cells HIV-1 protection, formazan growth assay	< 3.70
COP(=O)(Cc1ccc(/C=C/C#N)o1)OC	CEM cells HIV-1 protection, formazan growth assay	< 3.70
N#CC1CC(c2ccccc2)=NC1c1ccccc1 (configuration not stated)	CEM cells HIV-1 protection, formazan growth assay	< 4.53
Cc1ccc(C=C2C(=O)NC(=O)NC2=O)cc1	CEM cells HIV-1 protection, formazan growth assay	< 3.81
Cc1nc2c(sc(=S)n2-c2ccccc2)c(=O)[nH]1	CEM cells HIV-1 protection, formazan growth assay	< 4.04
